# PROTOCOL_DETAILS: Volume of distribution at steady state in C57BL/6 mouse at 1 mg/kg, iv
# Assay type: ADME, organism-based
# CONDITION_LABEL: in vivo, read-out: Vdss

# ITEM_SMILES, Vd [L/kg]
data = [
    ("O=S(=O)(Nc1ccc(S(=O)(=O)C(F)(F)F)cc1Oc1cc(F)cc(F)c1)c1ccccc1", 0.35),
]

* * *

# PROTOCOL_DETAILS: AUC (0 to t) in C57BL/6 mouse at 3 mg/kg, po
# Format: ADME, organism-based
# Parameters: dose 3 mg/kg
# CONDITION_LABEL: in vivo
OBSERVATION_TYPE: AUC(0-t) (ng·h/mL)

# ITEM_SMILES, UNITS_TEXT, RECORDED_NUMBER
rows = [
    ("O=S(=O)(Nc1ccc(S(=O)(=O)C(F)(F)F)cc1Oc1cc(F)cc(F)c1)c1ccccc1", "ng·h/mL", 31300),
]

* * *

# PROTOCOL_DETAILS: MRT in C57BL/6 mouse at 1 mg/kg, iv
# Format: ADME, organism-based
# CONDITION_LABEL: in vivo
OBSERVATION_TYPE: MRT (h)

# ITEM_SMILES, RECORDED_NUMBER
records = [
    ("O=S(=O)(Nc1ccc(S(=O)(=O)C(F)(F)F)cc1Oc1cc(F)cc(F)c1)c1ccccc1", 5.74),
]

* * *

# PROTOCOL_DETAILS: Clearance in C57BL/6 mouse at 1 mg/kg, iv
# Type: ADME, organism-based
# CONDITION_LABEL: in vivo
OBSERVATION_TYPE: clearance

# ITEM_SMILES, RESULT
rows = [
    ("O=S(=O)(Nc1ccc(S(=O)(=O)C(F)(F)F)cc1Oc1cc(F)cc(F)c1)c1ccccc1", "1.01 mL/min/kg"),
]

* * *

# PROTOCOL_DETAILS: AUC (0 to t) in C57BL/6 mouse at 1 mg/kg, iv
# Assay type: ADME, organism-based
# Design: dose 1 mg/kg
# CONDITION_LABEL: in vivo

# ITEM_SMILES, AUC(0-t), ng·h/mL
rows = [
    ("O=S(=O)(Nc1ccc(S(=O)(=O)C(F)(F)F)cc1Oc1cc(F)cc(F)c1)c1ccccc1", 16200),
]

* * *

# PROTOCOL_DETAILS: Cmax in C57BL/6 mouse at 3 mg/kg, po
# Format: ADME, organism-based
# Design: route oral, dose 3 mg/kg
# CONDITION_LABEL: in vivo

# ITEM_SMILES, UNITS_TEXT, Cmax
rows = [
    ("O=S(=O)(Nc1ccc(S(=O)(=O)C(F)(F)F)cc1Oc1cc(F)cc(F)c1)c1ccccc1", "ng/mL", 3770),
]

* * *

# PROTOCOL_DETAILS: Inhibition of B0AT1 (unknown origin) by FLIPR assay
# Set-up: species or system Homo sapiens
Labelling field: enter yes (1) if recorded IC50 is less than 20 µM. Enter no (0) if it equals or exceeds that cut-off.

# COMPOUND, CATEGORY_LABEL
measured = [
    ("CCNC(=O)/C=C/c1cccc(Br)c1 [CINROMIDE]", "yes (1)"),
    ("c1ccc(CCCN2CCCCC2Cc2ccccc2)cc1 (stereo not given)", "no (0)"),
    ("Cc1cc(C(=O)Nc2ccc(Cl)cc2C(F)(F)F)no1", "yes (1)"),
    ("CN1C2CCC1CC(OC(c1ccccc1)c1ccccc1)C2 (stereo not given)", "no (0)"),
]
